# TESTED SYSTEM: IRAK4 (Homo sapiens, UniProt Q9NWZ3)
# Construct: Degradation of IRAK4 in OCI-LY10 was quantitatively measured using Meso Scale Discovery technology; endogenous in cells; host or cells: OCI-LY10
# Sequence (Q9NWZ3 1-460): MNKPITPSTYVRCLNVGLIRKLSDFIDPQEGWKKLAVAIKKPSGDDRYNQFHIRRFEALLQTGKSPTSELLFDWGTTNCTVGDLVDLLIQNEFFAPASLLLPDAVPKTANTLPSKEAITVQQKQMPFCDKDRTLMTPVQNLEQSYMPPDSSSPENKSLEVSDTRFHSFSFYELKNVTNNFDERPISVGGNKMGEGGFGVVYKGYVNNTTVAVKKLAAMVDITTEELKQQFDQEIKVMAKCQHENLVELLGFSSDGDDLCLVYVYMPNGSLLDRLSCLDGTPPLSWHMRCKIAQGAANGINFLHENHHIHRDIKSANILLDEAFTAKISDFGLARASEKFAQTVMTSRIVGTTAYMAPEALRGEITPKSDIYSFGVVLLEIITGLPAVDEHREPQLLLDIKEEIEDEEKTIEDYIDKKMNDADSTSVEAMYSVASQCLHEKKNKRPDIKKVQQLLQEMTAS
# MEASUREMENT DESCRIPTION: IRAK4 MSD Degradation in OCI-LY10
# Assay type: cell-based
# TEST SETTINGS: OCI-LY10 cells, 4 hrs incubation, MSD; read-out: IRAK4 degradation in OCI-LY10 at 4 hrs: DC50

{"columns": ["COMPOUND", "DC50"],
 "data": [
  ["Cn1c(=O)n(C2CCC(=O)NC2=O)c2cccc(N3CCN(CC4COC5(C4)CN(C[C@H]4CC[C@H](n6cc7cc(NC(=O)c8cccc(C(F)(F)F)n8)c(C(C)(C)O)cc7n6)CC4)C5)CC3)c21 (stereo partly shown)", "> 200 nM"],
  ["Cn1c(=O)n([C@H]2CCC(=O)NC2=O)c2cccc(C#CCN3CCN(C[C@H]4CC[C@H](n5cc(NC(=O)c6cnn7ccc(N8C[C@H]9C[C@@H]8CO9)nc67)c(C(F)F)n5)CC4)CC3)c21 (single isomer, unassigned)", "< 10 nM"],
  ["Cn1c(=O)n(C2CCC(=O)NC2=O)c2cccc(C#CCN3CCN(C[C@H]4CC[C@H](n5cc(NC(=O)c6cnn7cccnc67)c(C(F)F)n5)CC4)CC3)c21 (stereo partly shown)", "> 200 nM"],
  ["Cn1c(=O)n(C2CCC(=O)NC2=O)c2cccc(C#CCN3CCN(C(C#N)[C@H]4CC[C@H](n5cc(NC(=O)c6cnn7ccc(N8C[C@H]9C[C@@H]8CO9)nc67)c(C(F)F)n5)CC4)CC3)c21 (stereo partly shown)", "> 200 nM"],
  ["Cc1ccc(-c2nn([C@H]3CC[C@H](CN4CCN(CC#Cc5cccc6c5n(C)c(=O)n6C5CCC(=O)NC5=O)CC4)CC3)cc2NC(=O)c2cnn3cccnc23)cc1 (stereo partly shown)", "> 200 nM"],
  ["Cn1c(=O)n(C2CCC(=O)NC2=O)c2cccc(C#CCO[C@@H]3CCN(C[C@H]4CC[C@H](n5cc(NC(=O)c6cnn7ccc(N8C[C@H]9C[C@@H]8CO9)nc67)c(C(F)F)n5)CC4)C[C@@H]3F)c21 (stereo partly shown) [I-22]", "10 to 100 nM"],
  ["Cn1c(=O)n(C2CCC(=O)NC2=O)c2cccc(C#CCOC3CCN(CC4CCN(c5nc(C(F)F)c(NC(=O)c6cnn7ccc(N8C[C@H]9C[C@@H]8CO9)nc67)o5)CC4)CC3)c21 (stereo partly shown)", "> 200 nM"],
  ["Cn1c(=O)n(C2CCC(=O)NC2=O)c2cccc(C#CCO[C@@H]3CCN(C[C@H]4CC[C@H](n5cc(NC(=O)c6cnn7ccc(N8CCS(=O)(=O)CC8)nc67)c(C(F)F)n5)CC4)C[C@@H]3F)c21 (stereo partly shown)", "> 200 nM"],
  ["COc1cc2nn([C@H]3CC[C@H](CN4CC=C(c5ccc6c(c5)n(C)c(=O)n6C5CCC(=O)NC5=O)C(F)(F)C4)CC3)cc2cc1NC(=O)c1cccc(C(F)(F)F)n1 (stereo partly shown) [I-704]", "> 200 nM"],
  ["O=C1CCN(c2cccc(C#CCN3CCN(C[C@H]4CC[C@@H](n5cc(NC(=O)c6cnn7ccc(N8CC9CC(C8)O9)nc67)c(C(F)F)n5)CC4)CC3)c2)C(=O)N1", "> 200 nM"]
]}
